Tested on: myeloid leukemia patient primary cells Pat.3
Assay: cell viability (% survival relative to DMSO control); higher = less cytotoxic
Details: 1 nM; 72 h
Reported Metric: cell viability (%)
Value expressed in %; do not type the unit.

Record for `Nc1nc(Cl)nc2c1ncn2[C@H]1C[C@H](O)[C@@H](CO)O1` under target or system myeloid leukemia patient primary cells Pat.3: cell viability reported as 92.1

Fill in: myeloid leukemia patient primary cells Pat.3 cell viability for `CCC(=O)N1CCN(c2ccc(-n3c(=O)ccc4cnc5ccc(-c6cnc7ccccc7c6)cc5c43)cc2C(F)(F)F)CC1` = 96.1

cell viability value, target or system myeloid leukemia patient primary cells Pat.3, for `O=C1c2cc([N+](=O)[O-])ccc2-n2c1nc1ccccc1c2=O` : 93.1

More entries:
Item `COC(=O)[C@]12CCC(C)(C)C[C@H]1[C@H]1C(=O)C=C3[C@@]4(C)C=C(C#N)C(=O)C(C)(C)[C@@H]4CC[C@@]3(C)[C@]1(C)CC2` was tested on myeloid leukemia patient primary cells Pat.3; the reported cell viability is 83.7

====

System: myeloid leukemia patient primary cells Pat.1
Assay: cell viability (% survival relative to DMSO control); higher = less cytotoxic
Details: 10 nM; 72 h
Quick reference for cell viability among some compounds
Answer with a number only, understood to be in %.

Known cell viability results, listed for orientation:
Value of cell viability reported for the compound `N#CC(C#N)=NNc1ccc(OC(F)(F)F)cc1` is 89.9

// recorded cell viability for `COC(=O)[C@]12CCC(C)(C)C[C@H]1[C@H]1C(=O)C=C3[C@@]4(C)C=C(C#N)C(=O)C(C)(C)[C@@H]4CC[C@@]3(C)[C@]1(C)CC2` : 68.1

cell viability reported for this compound `O=C(O)Cn1nnc(-c2cc(N3CCC(Oc4cc(F)ccc4Br)CC3)no2)n1` : 77.4

Entry under test: `COc1cc(/C=C/C(=O)N2CCC=CC2=O)cc(OC)c1OC` . Its cell viability was 84.5

response.value for O=C1O/C(=C/Br)CCC1c1cccc2ccccc12 (stereo unspecified) (field: cell viability) = 90.4

Consider the record given below.
For reference, reported cell viability for `C=C(C)[C@H]1Cc2c(ccc3c2O[C@@H]2COc4cc(OC)c(OC)cc4[C@@H]2C3=O)O1` stands at 81.3

====

# cell viability values compiled below
Test system: myeloid leukemia patient primary cells Pat.7
Assay: cell viability (% survival relative to DMSO control); higher = less cytotoxic
Settings: 100 nM; 72 h
Give the value, in units of %, as a plain number.

Examples with answers:
Recorded cell viability for `COc1cc(/C=C/C(=O)N2CCC=CC2=O)cc(OC)c1OC` on myeloid leukemia patient primary cells Pat.7 was 69.9

The measured cell viability that `C=C(C)[C@H]1Cc2c(ccc3c2O[C@@H]2COc4cc(OC)c(OC)cc4[C@@H]2C3=O)O1` showed for myeloid leukemia patient primary cells Pat.7 is 54.6

Next:
The compound `N#CC(C#N)=NNc1ccc(OC(F)(F)F)cc1` , tested on myeloid leukemia patient primary cells Pat.7, showed cell viability of 93.6

Entry `O=C(C1CC1)N1CC[C@@H](C=C2NNC(=O)N2c2ccc(-c3ccc4occc4c3)cc2)C1` : cell viability on myeloid leukemia patient primary cells Pat.7 = 81.9

====

System: MV4-11
Assay: cell viability (% survival relative to DMSO control, bortezomib = 0%); higher = less cytotoxic
Settings: 1 nM; 72 h
Entries and their measured cell viability follow.
Report the value in % with no unit label.

The following compounds have reported results that may help.
compound `CCOC(=O)c1ccc(-c2ccc(OC(=O)N(C)Cc3cccc(-c4ccncc4)c3)cc2)cc1` , cell viability observed: 129

Recorded result, `CCCCCCCCCCC[C@@H](C[C@@H]1OC(=O)[C@H]1CCCCCC)OC(=O)[C@H](CC(C)C)NC=O` , cell viability: 107

According to the records, this compound `NC(=O)c1cccc(-c2cccc(OC(=O)NC3CCCCC3)c2)c1` displays cell viability of 96.4

Others:
Memo: `CC[C@H](C)C(=O)O[C@H]1C[C@@H](C)C=C2C=C[C@H](C)[C@H](CC[C@@H]3C[C@@H](O)CC(=O)O3)[C@H]21` , reported cell viability: 97.6

Notebook: CCCCCCCCCCCC(=O)c1c(O)c(C(=O)CCCCCCCCCCC)c(O)c(C2CC(c3ccc(O)cc3)Oc3cc(O)ccc32)c1O (centres undefined) , cell viability read as 95.9

====

Tested on: THP-1
Conditions: 72 h
Reported Metric: IC50 (cell viability)

Completed entries (count: 3):
// IC50 (cell viability) value for `CC(C)(C#N)c1cc(Cn2cncn2)cc(C(C)(C)C#N)c1` : > 10 µM

Data point: `CC(C)c1nc(CN(C)C(=O)N[C@H](C(=O)N[C@@H](Cc2ccccc2)C[C@H](O)[C@H](Cc2ccccc2)NC(=O)OCc2cncs2)C(C)C)cs1` ; IC50 (cell viability) = > 10 µM

What the record says about `CCC(=O)N1CCN(c2ccc(-n3c(=O)ccc4cnc5ccc(-c6cnc7ccccc7c6)cc5c43)cc2C(F)(F)F)CC1` : IC50 (cell viability) is 1.11 µM

---
Note to self: IC50 (cell viability) recorded for Cl.NC(CCC(=O)Nc1ccc([N+](=O)[O-])cc1)C(=O)O (stereo unspecified) was > 10 µM

Measured IC50 (cell viability) of `O[C@H]1[C@H]2[C@H](O)CCCN2C[C@H]1O` : > 10 µM

Form field IC50 (cell viability), entry `COc1ccc2c(C(=S)N(C)CC(=O)O)cccc2c1C(F)(F)F` : > 10 µM

Data point: `CCCc1cc(-c2nc(-c3ccc(C)cc3)cs2)ccn1` ; IC50 (cell viability) = > 10 µM

Per the record, `CN(C)C(=O)[C@H](O)[C@H](Cc1ccccc1)NC(=O)c1cc2cc(Cl)ccc2[nH]1` has IC50 (cell viability) of > 10 µM

In plain terms, `N#CC(C#N)=NNc1ccc(OC(F)(F)F)cc1` has a documented IC50 (cell viability) of 3.77 µM

get_value(item= `CC(C)c1cc2c(c(O)c1O)[C@@]1(C(=O)O)CCCC(C)(C)[C@@H]1CC2` , readout=IC50 (cell viability)) returns > 10 µM

# IC50 (cell viability) (compound: `C=C(C)[C@H]1Cc2c(ccc3c2O[C@@H]2COc4cc(OC)c(OC)cc4[C@@H]2C3=O)O1` ) is 0.268 µM

====

Tested on: HL-60
Experiment: cell viability (% survival relative to DMSO control); higher = less cytotoxic
Conditions: 10 µM; 72 h; co-treatment: AZD3965 100 nM
Reported Metric: cell viability
Just so you know, I need the unit written after the number.

Lab note: `CC(C)(C#N)c1cc(Cn2cncn2)cc(C(C)(C)C#N)c1` gave cell viability of 100%

***
For record `O=C1c2cc([N+](=O)[O-])ccc2-n2c1nc1ccccc1c2=O` the listed cell viability is 2.3%

The reported cell viability of the compound O=C(O)CCCCC(CCSCc1ccccc1)SCc1ccccc1 (centres undefined) was 105%

Form: compound = `N#CC(C#N)=NNc1ccc(OC(F)(F)F)cc1` ; cell viability = 8.55%

Value of measured cell viability for the entry `O=c1cc(-c2ccccc2)oc2cc(O)c(O)c(O)c12` : 101%

Noted for `Nc1ccccc1C(=O)C[C@H](N)C(=O)O` : its cell viability reads 104%

cell viability recorded for this compound, `Nc1nc(Cl)nc2c1ncn2[C@H]1C[C@H](O)[C@@H](CO)O1` , is 3.27%

cell viability reading for `O=C(O)C1=CC(=C(c2ccc(O)c(C(=O)O)c2)c2ccc(O)c(C(=O)O)c2)C=CC1=O` : 98.9%

Recorded result, `COc1ccc2c(C(=S)N(C)CC(=O)O)cccc2c1C(F)(F)F` , cell viability: 98.3%

====

Test system: HEL
Test: cell viability (% survival relative to DMSO control, bortezomib = 0%); higher = less cytotoxic
Details: 100 nM; 72 h
# cell viability annotations
Lab book: enter the figure in %, no units written.

Solved entries:
The measured cell viability associated with `CCCc1cc(-c2nc(-c3ccc(C)cc3)cs2)ccn1` reads 92.1

Value of cell viability reported for the compound NS(=O)(=O)c1ccc([N+](=O)[O-])cc1 [4-Nitrobenzenesulfonamide] is 105

Per the records, this compound ( NCCCC(N)(C(=O)O)C(F)F (centres undefined) ) has cell viability equal to 90.1

# input for lookup
The recorded cell viability for Cc1ccccc1C(C(=O)NC1CCCCC1)N(C(=O)Cn1ccnc1C)c1cccc(F)c1 (centres undefined) is 106

====

Test system: LAMA-84
Experiment: cell viability (% survival relative to DMSO control, bortezomib = 0%); higher = less cytotoxic
Conditions: 10000 nM; 72 h
# label = Met if cell viability < 90% else Not met

Answered examples (3):
q: Would you kindly verify if cell viability of NS(=O)(=O)c1ccc([N+](=O)[O-])cc1 [4-Nitrobenzenesulfonamide] is strictly less than 90%?
a: Not met

q: Lab note: confirm whether the reported cell viability for this compound is below 90%, equality not counting. compound: `CCCCCCCCCCC[C@@H](C[C@@H]1OC(=O)[C@H]1CCCCCC)OC(=O)[C@H](CC(C)C)NC=O`
a: Not met

q: Lab note: cell viability threshold 90%. Does this compound come in strictly under it? `COC(=O)[C@]12CCC(C)(C)C[C@H]1[C@H]1C(=O)C=C3[C@@]4(C)C=C(C#N)C(=O)C(C)(C)[C@@H]4CC[C@@]3(C)[C@]1(C)CC2`
a: Met

Next:
q: Confirm or reject: cell viability of CCN(CC)CCCC(C)Nc1ccnc2cc(Cl)ccc12 (stereo not drawn) lies strictly below 90%
a: Not met

q: Strictly below 90%: is that where cell viability of `COc1cc(/C=C/C(=O)N2CCC=CC2=O)cc(OC)c1OC` sits?
a: Met

q: Identify whether the compound `C=C(C=NNC(=N)N)NNC(=N)N` records cell viability below 90%.
a: Met

q: Strictly below 90% in cell viability? O=C1O[C@H]([C@@H](O)CO)C(O)=C1O [Vitamin C (ascorbate)]
a: Not met

q: Identify whether the compound `Cc1c(-c2ccc(-c3ccccc3F)cc2)nc2ccc(F)cc2c1C(=O)O` records cell viability below 90%.
a: Met
